- Tested on: prostate cancer DU145 cells
- ASSAY_SUMMARY: Cell viability assay, DU145
- Format: cell-based
- STATED_CONDITIONS: Homo sapiens, DU-145, 72 h, read-out: growth inhibition IC50
- Protocol: Cells were inoculated into a 96-well plate at a density of 3,000 cells/well. After the cells were cultivated for 18 h, different concentrations of a drug to be tested were added to act on the cells. […] After cells were treated with Tegaserod for 72 h, the cell viability was determined to reflect the inhibitory effect of the drug on cell growth.
PROPERTY_NAME: IC50 (nM)
Write the number in nM without appending the unit.

// query Param readout= IC50; system= prostate cancer DU145 cells; entry= CCCCCNC(=N)N/N=C/c1c[nH]c2ccc(OC)cc12 ; returns value.
// result 2500
